The measured values listed here are drawn from the supplement of paper PMC11732987.

- Target: OTUD5 (UniProt Q96G74)
- Sequence (Q96G74 whole entry, the tested form may be a part): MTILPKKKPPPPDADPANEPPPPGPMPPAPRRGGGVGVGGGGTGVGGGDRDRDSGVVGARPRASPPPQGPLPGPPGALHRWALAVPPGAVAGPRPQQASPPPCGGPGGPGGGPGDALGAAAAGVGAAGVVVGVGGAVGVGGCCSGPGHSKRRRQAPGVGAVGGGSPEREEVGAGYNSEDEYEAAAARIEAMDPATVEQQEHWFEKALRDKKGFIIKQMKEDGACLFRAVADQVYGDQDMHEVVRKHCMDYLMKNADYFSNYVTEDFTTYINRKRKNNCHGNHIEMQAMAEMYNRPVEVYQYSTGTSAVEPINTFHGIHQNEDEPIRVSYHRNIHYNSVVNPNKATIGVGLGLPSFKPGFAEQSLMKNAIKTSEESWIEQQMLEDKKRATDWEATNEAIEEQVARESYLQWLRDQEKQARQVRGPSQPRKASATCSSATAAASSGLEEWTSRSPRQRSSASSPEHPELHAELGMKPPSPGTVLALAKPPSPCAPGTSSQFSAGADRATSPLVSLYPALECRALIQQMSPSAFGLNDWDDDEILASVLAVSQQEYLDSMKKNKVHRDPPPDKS
- Procedure Summary: log2 ratio of Biotin-Ahx-Ub-VS probe labelling (fragment/DMSO); higher = less target engagement (more negative = stronger competition), active = hit call of the paper (q ≤ 0.05, log2 ratio ≤ -1)
- Applied Conditions: compound concentration: 200 uM; treatment time: 3 h
Value Type: log2 ratio of Biotin-Ahx-Ub-VS probe labelling
Enter a number only.

Reported log2 ratio of Biotin-Ahx-Ub-VS probe labelling ( CN(C)C(=O)c1ccc(NC(=O)CCl)cc1 ) = -0.508

Reported log2 ratio of Biotin-Ahx-Ub-VS probe labelling ( CN(Cc1nc2ccccc2[nH]1)C(=O)CCl.Cl ) = -0.483

Reported log2 ratio of Biotin-Ahx-Ub-VS probe labelling ( Cc1nc(CNC(=O)CCl)c2ccccn12.Cl ) = -0.159

Reported log2 ratio of Biotin-Ahx-Ub-VS probe labelling ( Cl.O=C(CCl)NCCc1ncc(F)cc1F ) = -0.474

Reported log2 ratio of Biotin-Ahx-Ub-VS probe labelling ( COc1cccc(CN(C)C(=O)CCl)c1 ) = -0.999

###

- Target: USP15 (UniProt Q9Y4E8)
- Sequence (Q9Y4E8 whole entry, the tested form may be a part): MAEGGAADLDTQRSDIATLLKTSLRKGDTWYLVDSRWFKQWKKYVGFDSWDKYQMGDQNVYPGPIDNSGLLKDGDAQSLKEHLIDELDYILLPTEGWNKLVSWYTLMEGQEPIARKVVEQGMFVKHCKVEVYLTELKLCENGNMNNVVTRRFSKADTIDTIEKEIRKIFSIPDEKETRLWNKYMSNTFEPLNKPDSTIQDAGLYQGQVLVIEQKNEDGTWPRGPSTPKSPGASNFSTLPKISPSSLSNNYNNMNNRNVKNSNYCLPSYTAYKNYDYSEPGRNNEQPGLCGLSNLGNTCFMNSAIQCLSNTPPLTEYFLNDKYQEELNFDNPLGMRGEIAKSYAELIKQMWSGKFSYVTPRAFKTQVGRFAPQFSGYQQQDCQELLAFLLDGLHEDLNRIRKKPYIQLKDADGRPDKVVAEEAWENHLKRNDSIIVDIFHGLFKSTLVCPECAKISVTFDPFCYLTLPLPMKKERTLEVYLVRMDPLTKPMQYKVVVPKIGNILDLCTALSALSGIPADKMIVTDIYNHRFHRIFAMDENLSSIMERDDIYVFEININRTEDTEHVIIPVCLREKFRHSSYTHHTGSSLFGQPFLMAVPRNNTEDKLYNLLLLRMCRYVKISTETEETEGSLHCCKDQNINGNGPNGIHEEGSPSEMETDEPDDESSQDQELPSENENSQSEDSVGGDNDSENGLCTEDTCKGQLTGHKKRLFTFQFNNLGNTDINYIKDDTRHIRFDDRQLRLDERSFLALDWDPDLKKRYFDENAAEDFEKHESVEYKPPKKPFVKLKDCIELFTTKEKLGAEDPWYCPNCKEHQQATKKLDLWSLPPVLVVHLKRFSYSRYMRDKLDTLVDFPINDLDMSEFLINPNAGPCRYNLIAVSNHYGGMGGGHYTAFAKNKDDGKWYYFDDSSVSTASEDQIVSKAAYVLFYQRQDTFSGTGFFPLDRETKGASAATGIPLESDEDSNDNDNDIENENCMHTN
- Procedure Summary: log2 ratio of Biotin-Ahx-Ub-VS probe labelling (fragment/DMSO); higher = less target engagement (more negative = stronger competition), active = hit call of the paper (q ≤ 0.05, log2 ratio ≤ -1)
- Applied Conditions: compound concentration: 200 uM; treatment time: 3 h
Respond with YES for log2 ratio of Biotin-Ahx-Ub-VS probe labelling values of -0.3 and above, NO for values below.

Confirm if log2 ratio of Biotin-Ahx-Ub-VS probe labelling reported for the compound O=C(CCl)Nc1cccc(NC(=O)c2ccccc2)c1 is -0.3 or above.
YES

Confirm if log2 ratio of Biotin-Ahx-Ub-VS probe labelling reported for the compound Cl.Cn1nccc1C(NC(=O)CCl)c1ccccc1 (configuration not stated) is -0.3 or above.
YES

Confirm if log2 ratio of Biotin-Ahx-Ub-VS probe labelling reported for the compound O=C(CCl)N1CCCC1c1ccsc1 (configuration not stated) is -0.3 or above.
NO

Confirm if log2 ratio of Biotin-Ahx-Ub-VS probe labelling reported for the compound CC(NC(=O)CCl)c1ccc2[nH]ncc2c1 (configuration not stated) is -0.3 or above.
YES

Confirm if log2 ratio of Biotin-Ahx-Ub-VS probe labelling reported for the compound O=C(CCl)N1CCC(S(=O)(=O)c2ccc(F)cc2)CC1 is -0.3 or above.
NO

Confirm if log2 ratio of Biotin-Ahx-Ub-VS probe labelling reported for the compound Cc1cc(C(=O)NC2CCN(C(=O)CCl)CC2)no1 is -0.3 or above.
YES

Confirm if log2 ratio of Biotin-Ahx-Ub-VS probe labelling reported for the compound CC1(NC(=O)CCl)CCS(=O)(=O)C1 (configuration not stated) is -0.3 or above.
NO

Confirm if log2 ratio of Biotin-Ahx-Ub-VS probe labelling reported for the compound O=C(CCl)NCc1noc(C2CC2)n1 is -0.3 or above.
YES

Confirm if log2 ratio of Biotin-Ahx-Ub-VS probe labelling reported for the compound C#Cc1cccc(NC(=O)CCl)c1 is -0.3 or above.
NO

Confirm if log2 ratio of Biotin-Ahx-Ub-VS probe labelling reported for the compound O=C(CCl)Nc1ccccc1C(F)(F)F is -0.3 or above.
YES

Confirm if log2 ratio of Biotin-Ahx-Ub-VS probe labelling reported for the compound CC(=O)Nc1ccc(NC(=O)CCl)cc1 is -0.3 or above.
YES

###

- Target: UniProt P51784
- Sequence (P51784 whole entry, the tested form may be a part): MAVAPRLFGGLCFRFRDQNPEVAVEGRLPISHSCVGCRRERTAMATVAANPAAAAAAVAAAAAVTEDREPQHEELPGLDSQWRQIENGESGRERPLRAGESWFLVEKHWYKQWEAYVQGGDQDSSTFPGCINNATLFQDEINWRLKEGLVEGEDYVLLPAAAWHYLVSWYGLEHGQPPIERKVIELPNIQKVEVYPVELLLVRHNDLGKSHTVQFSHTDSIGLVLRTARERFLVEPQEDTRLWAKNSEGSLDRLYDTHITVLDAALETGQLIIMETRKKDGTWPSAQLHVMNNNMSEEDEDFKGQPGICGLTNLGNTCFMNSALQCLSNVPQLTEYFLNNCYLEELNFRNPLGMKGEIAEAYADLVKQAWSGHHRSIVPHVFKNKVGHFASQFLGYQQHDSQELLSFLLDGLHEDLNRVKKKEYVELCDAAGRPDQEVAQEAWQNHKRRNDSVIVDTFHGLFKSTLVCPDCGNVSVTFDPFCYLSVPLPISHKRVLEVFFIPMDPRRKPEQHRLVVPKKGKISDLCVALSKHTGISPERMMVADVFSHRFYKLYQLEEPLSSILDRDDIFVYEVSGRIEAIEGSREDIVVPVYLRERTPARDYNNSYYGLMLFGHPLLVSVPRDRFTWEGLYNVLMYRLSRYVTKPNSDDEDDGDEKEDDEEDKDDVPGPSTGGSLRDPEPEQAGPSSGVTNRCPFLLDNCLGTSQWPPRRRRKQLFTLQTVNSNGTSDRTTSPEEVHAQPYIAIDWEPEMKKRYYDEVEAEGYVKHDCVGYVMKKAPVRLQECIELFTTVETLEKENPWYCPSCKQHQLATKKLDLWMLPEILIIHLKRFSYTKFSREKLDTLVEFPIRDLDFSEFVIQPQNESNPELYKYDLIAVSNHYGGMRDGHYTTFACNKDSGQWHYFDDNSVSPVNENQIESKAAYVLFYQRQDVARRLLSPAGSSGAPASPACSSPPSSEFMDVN
- Procedure Summary: log2 ratio of Biotin-Ahx-Ub-VS probe labelling (fragment/DMSO); higher = less target engagement (more negative = stronger competition), active = hit call of the paper (q ≤ 0.05, log2 ratio ≤ -1)
- Applied Conditions: compound concentration: 200 uM; treatment time: 3 h
Give measured log2 ratio of Biotin-Ahx-Ub-VS probe labelling for each item. Keep answers brief.
Enter a number only.

Bench note, UniProt P51784: entry O=C(CCl)N1CCC(=C(F)CO)C1 , its log2 ratio of Biotin-Ahx-Ub-VS probe labelling = 0.155

Bench note, UniProt P51784: entry Cc1ccc(CNC(=O)CCl)nc1C.Cl , its log2 ratio of Biotin-Ahx-Ub-VS probe labelling = 0.353

Bench note, UniProt P51784: entry Cc1cccc(C(CNC(=O)CCl)N2CCOCC2)c1.Cl (configuration not stated) , its log2 ratio of Biotin-Ahx-Ub-VS probe labelling = -0.0777

Bench note, UniProt P51784: entry CS(=O)(=O)N1CCCN(C(=O)CCl)CC1 , its log2 ratio of Biotin-Ahx-Ub-VS probe labelling = -0.0587

Bench note, UniProt P51784: entry C[C@H]1CN(C(=O)CCl)CCN1C(=O)c1cnn(C)c1.Cl , its log2 ratio of Biotin-Ahx-Ub-VS probe labelling = 0.00812

Bench note, UniProt P51784: entry O=C(CCl)N1CCCC2CCCCC21 (configuration not stated) , its log2 ratio of Biotin-Ahx-Ub-VS probe labelling = 0.035

Bench note, UniProt P51784: entry CN(CCc1ncc(Br)cn1)C(=O)CCl.Cl , its log2 ratio of Biotin-Ahx-Ub-VS probe labelling = -0.0725

###

- Target: USP19 (UniProt O94966)
- Sequence (O94966 whole entry, the tested form may be a part): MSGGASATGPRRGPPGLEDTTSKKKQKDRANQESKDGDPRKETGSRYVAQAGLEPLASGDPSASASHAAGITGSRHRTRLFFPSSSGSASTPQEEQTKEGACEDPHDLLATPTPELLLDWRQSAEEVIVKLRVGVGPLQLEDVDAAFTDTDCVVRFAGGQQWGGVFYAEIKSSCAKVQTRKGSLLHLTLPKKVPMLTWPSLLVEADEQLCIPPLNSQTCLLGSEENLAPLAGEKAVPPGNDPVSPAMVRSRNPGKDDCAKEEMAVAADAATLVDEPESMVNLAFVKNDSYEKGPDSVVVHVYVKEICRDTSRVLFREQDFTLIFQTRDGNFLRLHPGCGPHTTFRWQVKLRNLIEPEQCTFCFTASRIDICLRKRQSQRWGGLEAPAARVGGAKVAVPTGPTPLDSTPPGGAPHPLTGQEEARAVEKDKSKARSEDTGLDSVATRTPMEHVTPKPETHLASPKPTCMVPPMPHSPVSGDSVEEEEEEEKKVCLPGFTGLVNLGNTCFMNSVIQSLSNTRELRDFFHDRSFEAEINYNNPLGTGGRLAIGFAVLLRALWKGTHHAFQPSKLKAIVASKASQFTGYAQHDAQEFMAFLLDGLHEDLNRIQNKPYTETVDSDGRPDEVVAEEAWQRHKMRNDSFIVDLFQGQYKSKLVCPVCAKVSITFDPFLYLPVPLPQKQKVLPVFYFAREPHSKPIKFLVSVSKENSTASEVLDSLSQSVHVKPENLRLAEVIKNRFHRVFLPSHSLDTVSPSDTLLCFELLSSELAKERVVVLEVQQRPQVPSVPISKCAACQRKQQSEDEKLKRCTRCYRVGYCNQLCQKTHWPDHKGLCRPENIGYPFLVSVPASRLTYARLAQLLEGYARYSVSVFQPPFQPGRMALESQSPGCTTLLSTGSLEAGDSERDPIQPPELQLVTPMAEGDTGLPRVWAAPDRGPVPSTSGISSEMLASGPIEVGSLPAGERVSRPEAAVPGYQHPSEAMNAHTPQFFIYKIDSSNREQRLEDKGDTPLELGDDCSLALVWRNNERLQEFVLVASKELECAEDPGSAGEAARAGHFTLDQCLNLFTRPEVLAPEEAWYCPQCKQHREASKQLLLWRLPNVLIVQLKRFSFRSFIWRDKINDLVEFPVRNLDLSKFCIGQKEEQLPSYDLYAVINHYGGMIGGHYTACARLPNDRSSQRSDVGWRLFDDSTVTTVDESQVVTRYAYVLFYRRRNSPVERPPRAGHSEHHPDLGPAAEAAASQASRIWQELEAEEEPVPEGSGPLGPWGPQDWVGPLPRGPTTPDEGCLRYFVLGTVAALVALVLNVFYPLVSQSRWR
- Procedure Summary: log2 ratio of Biotin-Ahx-Ub-VS probe labelling (fragment/DMSO); higher = less target engagement (more negative = stronger competition), active = hit call of the paper (q ≤ 0.05, log2 ratio ≤ -1)
- Applied Conditions: compound concentration: 200 uM; treatment time: 3 h
Give measured log2 ratio of Biotin-Ahx-Ub-VS probe labelling for each item. Keep answers brief.
Enter a number only.

Reported log2 ratio of Biotin-Ahx-Ub-VS probe labelling ( Cc1cccc2nc(CCNC(=O)CCl)cn12.Cl ) = -0.242

Reported log2 ratio of Biotin-Ahx-Ub-VS probe labelling ( O=C(CCl)N1CCN(C(=O)Nc2ccccc2)CC1 ) = -0.276

Reported log2 ratio of Biotin-Ahx-Ub-VS probe labelling ( C[C@@H](NC(=O)CCl)c1cccc(C#N)c1 ) = -0.157

Reported log2 ratio of Biotin-Ahx-Ub-VS probe labelling ( O=C(CCl)N1CCC(c2noc3cc(F)ccc23)CC1 ) = -0.49

Reported log2 ratio of Biotin-Ahx-Ub-VS probe labelling ( Cc1ccc(CC(NC(=O)CCl)c2ccccn2)cc1.Cl (configuration not stated) ) = 0.168

Reported log2 ratio of Biotin-Ahx-Ub-VS probe labelling ( CCCn1nccc1NC(=O)CCl ) = -0.237

Reported log2 ratio of Biotin-Ahx-Ub-VS probe labelling ( CCN(C(=O)CCl)C1CCS(=O)(=O)C1 (configuration not stated) ) = 0.00457

Reported log2 ratio of Biotin-Ahx-Ub-VS probe labelling ( Cl.O=C(CCl)NC1(c2ncccn2)CCC1 ) = 0.0868

Reported log2 ratio of Biotin-Ahx-Ub-VS probe labelling ( COc1ccccc1C(C)NC(=O)CCl (configuration not stated) ) = -0.243

Reported log2 ratio of Biotin-Ahx-Ub-VS probe labelling ( N#Cc1ccccc1N1CCN(C(=O)CCl)CC1 ) = -0.813

Reported log2 ratio of Biotin-Ahx-Ub-VS probe labelling ( COCC[C@@H](NC(=O)CCl)c1ccccc1 ) = -0.0952

Reported log2 ratio of Biotin-Ahx-Ub-VS probe labelling ( CC(=O)C1CCCCN1C(=O)CCl (configuration not stated) ) = -0.14

Reported log2 ratio of Biotin-Ahx-Ub-VS probe labelling ( CN(C)C(=O)c1ccc(NC(=O)CCl)cc1 ) = -0.166

Reported log2 ratio of Biotin-Ahx-Ub-VS probe labelling ( CC1Cc2ccccc2N1C(=O)CCl (configuration not stated) ) = -0.643

Reported log2 ratio of Biotin-Ahx-Ub-VS probe labelling ( O=C(CCl)N1CCN2C(=O)CCC2C1 (configuration not stated) ) = 0.0407

Reported log2 ratio of Biotin-Ahx-Ub-VS probe labelling ( CNC(=O)C1CCN(C(=O)CCl)CC1 ) = -0.122

Reported log2 ratio of Biotin-Ahx-Ub-VS probe labelling ( CC(NC(=O)CCl)c1cccc(Cl)c1 (configuration not stated) ) = -0.35

Reported log2 ratio of Biotin-Ahx-Ub-VS probe labelling ( O=C(CCl)NCc1ccc(N2CCOCC2)c(F)c1 ) = 0.108

Reported log2 ratio of Biotin-Ahx-Ub-VS probe labelling ( Cc1cc(CC(C)NC(=O)CCl)n[nH]1 (configuration not stated) ) = -0.257

Reported log2 ratio of Biotin-Ahx-Ub-VS probe labelling ( O=C(CCl)NCc1cccc(F)c1 ) = -0.000373

Reported log2 ratio of Biotin-Ahx-Ub-VS probe labelling ( Cc1ccccc1C1(CNC(=O)CCl)CCOCC1 ) = -0.115

Reported log2 ratio of Biotin-Ahx-Ub-VS probe labelling ( Cc1cccc(N(CCC#N)C(=O)CCl)c1C ) = 0.16

Reported log2 ratio of Biotin-Ahx-Ub-VS probe labelling ( O=C(CCl)NC1CCC(C(F)(F)F)CC1 (configuration not stated) ) = -0.155

Reported log2 ratio of Biotin-Ahx-Ub-VS probe labelling ( Cc1nc(CN2CCN(C(=O)CCl)CC2)cs1 ) = -0.347

Reported log2 ratio of Biotin-Ahx-Ub-VS probe labelling ( CC(=O)Nc1ccc(NC(=O)CCl)cc1 ) = -0.179

Reported log2 ratio of Biotin-Ahx-Ub-VS probe labelling ( Cc1ccc(C(=O)NCCNC(=O)CCl)cc1 ) = -0.26

Reported log2 ratio of Biotin-Ahx-Ub-VS probe labelling ( Cc1conc1C1CN(C(=O)CCl)C1 ) = -1.19

Reported log2 ratio of Biotin-Ahx-Ub-VS probe labelling ( O=C(CCl)NCc1ccc(Cl)cc1 ) = -0.0819

Reported log2 ratio of Biotin-Ahx-Ub-VS probe labelling ( Cc1cc(Cl)ccc1NC(=O)CCl ) = -0.055

Reported log2 ratio of Biotin-Ahx-Ub-VS probe labelling ( Cl.O=C(CCl)NCCc1ncc(F)cc1F ) = -0.108

Reported log2 ratio of Biotin-Ahx-Ub-VS probe labelling ( O=C(CCl)N1CCc2[nH]c3ccccc3c2C1 ) = -0.968

Reported log2 ratio of Biotin-Ahx-Ub-VS probe labelling ( Cc1ccc2nnc(CNC(=O)CCl)n2c1 ) = -0.0329

Reported log2 ratio of Biotin-Ahx-Ub-VS probe labelling ( CCC(NC(=O)CCl)c1ccc(Cl)cc1 (configuration not stated) ) = -0.0763

Reported log2 ratio of Biotin-Ahx-Ub-VS probe labelling ( O=C(CCl)N1CCCCC12CCOCC2 ) = -0.481

Reported log2 ratio of Biotin-Ahx-Ub-VS probe labelling ( O=C(CCl)N1CCC(C(O)c2ccc(F)cc2)CC1 (configuration not stated) ) = 0.0656

Reported log2 ratio of Biotin-Ahx-Ub-VS probe labelling ( O=C(CCl)N[C@H]1CC[C@@H](CO)CC1 ) = -0.828

Reported log2 ratio of Biotin-Ahx-Ub-VS probe labelling ( Cn1cc(CN(Cc2ccc(Cl)cc2)C(=O)CCl)cn1 ) = -0.653

Reported log2 ratio of Biotin-Ahx-Ub-VS probe labelling ( CN(CCC(O)c1ccc(Br)cc1)C(=O)CCl (configuration not stated) ) = -0.439

Reported log2 ratio of Biotin-Ahx-Ub-VS probe labelling ( O=C(CCl)NCCc1cccc2ccccc12 ) = 0.0202

Reported log2 ratio of Biotin-Ahx-Ub-VS probe labelling ( Cc1ccc(CN(CCO)C(=O)CCl)cc1 ) = -0.37

Reported log2 ratio of Biotin-Ahx-Ub-VS probe labelling ( CN1c2ccccc2C(NC(=O)CCl)CS1(=O)=O (configuration not stated) ) = -0.159

Reported log2 ratio of Biotin-Ahx-Ub-VS probe labelling ( O=C(CCl)NC(Cn1ccccc1=O)c1ccccc1 (configuration not stated) ) = -0.14

Reported log2 ratio of Biotin-Ahx-Ub-VS probe labelling ( Cc1cc(C(=O)NC2CCN(C(=O)CCl)CC2)no1 ) = -0.0463

Reported log2 ratio of Biotin-Ahx-Ub-VS probe labelling ( O=C(CN1CCN(C(=O)CCl)CC1)Nc1cccc(F)c1 ) = -0.265

Reported log2 ratio of Biotin-Ahx-Ub-VS probe labelling ( Cc1ccn2cc(CNC(=O)CCl)nc2c1.Cl ) = -0.148

Reported log2 ratio of Biotin-Ahx-Ub-VS probe labelling ( Cc1cc(NC(=O)CCl)n(-c2ccccc2)n1 ) = -0.106

Reported log2 ratio of Biotin-Ahx-Ub-VS probe labelling ( O=C(CCl)N1CCCN(C(=O)c2ccc(Cl)cc2)CC1 ) = -0.449
